- testedTarget: Envelope glycoprotein gp160 (Human immunodeficiency virus 1) (UniProt Q6QLK5)
- Sequence (Q6QLK5 1-814): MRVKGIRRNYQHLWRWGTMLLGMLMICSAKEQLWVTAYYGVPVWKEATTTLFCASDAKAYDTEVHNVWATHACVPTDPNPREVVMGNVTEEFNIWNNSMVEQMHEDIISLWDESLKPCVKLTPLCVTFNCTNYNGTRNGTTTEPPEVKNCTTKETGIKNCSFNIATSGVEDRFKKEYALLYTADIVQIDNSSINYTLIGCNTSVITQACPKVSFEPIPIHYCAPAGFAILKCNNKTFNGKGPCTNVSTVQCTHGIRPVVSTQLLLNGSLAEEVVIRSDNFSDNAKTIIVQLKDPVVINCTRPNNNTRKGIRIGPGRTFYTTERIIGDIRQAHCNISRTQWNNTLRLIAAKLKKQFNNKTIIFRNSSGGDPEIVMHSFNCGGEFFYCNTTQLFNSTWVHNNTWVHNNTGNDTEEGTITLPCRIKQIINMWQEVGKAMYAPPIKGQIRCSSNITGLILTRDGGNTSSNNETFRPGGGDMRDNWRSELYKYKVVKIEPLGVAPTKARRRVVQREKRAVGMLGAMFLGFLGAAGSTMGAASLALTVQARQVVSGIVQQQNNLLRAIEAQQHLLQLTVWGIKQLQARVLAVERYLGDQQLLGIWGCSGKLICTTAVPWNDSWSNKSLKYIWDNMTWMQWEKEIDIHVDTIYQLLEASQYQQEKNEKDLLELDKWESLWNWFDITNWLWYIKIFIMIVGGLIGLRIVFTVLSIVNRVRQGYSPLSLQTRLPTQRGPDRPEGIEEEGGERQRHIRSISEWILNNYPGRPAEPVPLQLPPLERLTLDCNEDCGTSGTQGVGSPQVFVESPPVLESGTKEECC
- experimentalDetails: Binding affinity to HIV1JRFL envelope glycoprotein expressed in human HOS cells assessed as fold change in binding to CoRBS 17b incubated for 1 hrs by cell based ELISA relative to BNM-III-170
- setupConditions: JRFL
Each record's class is read off its fold change (FC) using these ranges: low band = under 0.08, middle band = from 0.08 up to 0.4, high band = 0.4 and over

// return the class label for `COC(=O)N1CCC[C@H](C(=O)Nc2ccc(Cl)c(F)c2)C1`
high band

// return the class label for `CS(=O)(=O)N1CCC[C@H](C(=O)Nc2ccc(Cl)cc2)C1`
middle band

// return the class label for CCS(=O)(=O)N1CCCC(C(=O)Nc2ccc(Cl)c(F)c2)C1 (racemic)
high band

// return the class label for `O=C(Nc1ccc(Cl)c(F)c1)[C@H]1CCCOC1`
high band

// return the class label for `CC(C)COC(=O)N1CCC[C@H](C(=O)Nc2ccc(Cl)c(F)c2)C1`
high band

// return the class label for `CS(=O)(=O)N1CCC[C@H](C(=O)Oc2ccc(Cl)c(F)c2)C1`
low band

// return the class label for `CCCNC(=O)N1C[C@H](N)C[C@H](C(=O)Nc2ccc(Cl)c(F)c2)C1`
middle band

// return the class label for `NCCNC(=O)N1C[C@H](N)C[C@H](C(=O)Nc2ccc(Cl)c(F)c2)C1`
low band

----------
Record form. Attribute: fold change (FC). Fill in for each entry.
- testedTarget: Envelope glycoprotein gp160 (Human immunodeficiency virus 1)
- experimentalDetails: Binding affinity to HIV1JRFL envelope glycoprotein expressed in human HOS cells assessed as fold change in binding to CoRBS 17b incubated for 1 hrs by cell based ELISA relative to BNM-III-170
- setupConditions: JRFL

Quickly give me recorded fold change (FC) for `NCCCNC(=O)N1C[C@H](N)C[C@H](C(=O)Nc2ccc(Cl)c(F)c2)C1`
0.06

Quickly give me recorded fold change (FC) for `NCCOC(=O)N1C[C@H](N)C[C@H](C(=O)Nc2ccc(Cl)c(F)c2)C1`
0.07

Quickly give me recorded fold change (FC) for `CCCNC(=O)N1CCC[C@H](C(=O)Nc2ccc(Cl)c(F)c2)C1`
0.55

Quickly give me recorded fold change (FC) for CS(=O)(=O)N1CCOC(C(=O)Nc2ccc(Cl)c(F)c2)C1 (racemic)
0.28

Quickly give me recorded fold change (FC) for CS(=O)(=O)N1CC(C(=O)Nc2ccc(Cl)c(F)c2)Cc2ccccc21 (racemic)
0.24

----------
- testedTarget: Envelope glycoprotein gp160 (Human immunodeficiency virus 1) (UniProt Q6QLK5)
- experimentalDetails: Binding affinity to HIV1JRFL envelope glycoprotein expressed in human HOS cells assessed as fold change in binding to CoRBS 17b incubated for 1 hrs by cell based ELISA relative to BNM-III-170
- setupConditions: JRFL
Lab note: anything with fold change (FC) at or over 0.4 counts as fulfilled; the rest go in not fulfilled.

Test whether the compound `CS(=O)(=O)N1CCC(C(=O)Nc2ccc(Cl)c(F)c2)CC1` records fold change (FC) of 0.4 or higher.
not fulfilled

Test whether the compound `NCCNC(=O)N1CCC[C@H](C(=O)Nc2ccc(Cl)c(F)c2)C1` records fold change (FC) of 0.4 or higher.
fulfilled

Test whether the compound `O=C(Nc1ccc(Cl)c(F)c1)[C@@H]1CCCOC1` records fold change (FC) of 0.4 or higher.
not fulfilled

Test whether the compound `CCS(=O)(=O)N1CCC[C@H](C(=O)Nc2ccc(Cl)c(F)c2)C1` records fold change (FC) of 0.4 or higher.
not fulfilled

Test whether the compound `CS(=O)(=O)N1CCC[C@H](C(=O)Nc2ccc(Cl)c(F)c2)C1` records fold change (FC) of 0.4 or higher.
fulfilled

Test whether the compound O=C(Nc1ccc(Cl)c(F)c1)C1CCCOC1 (racemic) records fold change (FC) of 0.4 or higher.
fulfilled

Test whether the compound `CS(=O)(=O)N1CCC[C@H](C(=O)Nc2ccc(Br)cc2)C1` records fold change (FC) of 0.4 or higher.
not fulfilled

Test whether the compound CS(=O)(=O)N1CCC(C(=O)Nc2ccc(Cl)c(F)c2)C1 (racemic) records fold change (FC) of 0.4 or higher.
not fulfilled

Test whether the compound `O=C(Nc1ccc(Cl)c(F)c1)[C@H]1CCCN(S(=O)(=O)c2ccccc2)C1` records fold change (FC) of 0.4 or higher.
fulfilled
